These data points were gathered from patent US9468209B2.

# System: Japanese false bindweed (Calystegia hederacea)
# Assay Method Text: Leaf piece damage test
# Assay type: in vivo
# Parameters: key: 4: The leaf completely dead; 3: Two third of the leaf withered; 2: One half of the leaf withered; 1: Only edge of the leaf withered; 0: Not damage at all
# Reported Conditions: 50 μg/mL, 4 days
# Procedure: Compounds 7, 14, 15, 16, 40, 45, 48 and 53 were dissolved individually in small amount of methanol, and diluted with distilled water to concentration of 50 μg/mL. Methanol water solution and pure water were used as control. A piece of 5 mm leaf was taken from the second leaf of weed sample and was treated with the solution three times. […] The measurement of the plant damage was calculated by the formula: Damage Index=Σ(damage level×number of plants)×100/4/number of plants in each treatment.
Assign Damage level to each entry below.
One number for each entry.

Here is how some molecules turned out for Damage level.
molecule="CCC(C)C1NC(=O)C(C(=O)CCF)=C1O (stereo not shown) [Compound 44]" data_value=4
molecule="CCCC(C#N)C1NC(=O)C(=C(C)O)C1=O (stereo not shown) [Compound 53]" data_value=4
molecule="CCC(C)C1NC(=O)C(C(=O)CCc2cc(Cl)cc(Cl)c2)=C1O (stereo not shown) [Compound 48]" data_value=4

I would be grateful if you could provide Damage level for each of the following entries.
1. CCCCCCC1NC(=O)C(C(C)=O)=C1O (stereo not shown) [Compound 16]
2. CCCCC1NC(=O)C(C(C)=O)=C1O (stereo not shown) [Compound 14]
3. CCCCCC1NC(=O)C(C(C)=O)=C1O (stereo not shown) [Compound 15]
4. CCCC(Cl)C1NC(=O)C(C(C)=O)=C1O (stereo not shown) [Compound 40]

1. 4
2. 3
3. 3
4. 3
